- Study Target: Interleukin-8 (IL8, CXCL8), C-terminal His-tagged (Homo sapiens, UniProt P10145 SEQ:1-72)
- Sequence (P10145 28-99): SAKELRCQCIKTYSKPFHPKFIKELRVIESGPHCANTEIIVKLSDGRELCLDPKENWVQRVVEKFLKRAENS
- Assay Overview: TR-FRET; bead flow 13 nM
- Recorded Conditions: tags: C-terminal 6xHis (Sino Biological); label: Alexa Fluor 647
Test Readout: Kd (nM)
State just the number; it will be interpreted in nM.

Binder: UGCGGCCUCCGUUGACUGUUGUAAUGCCGGGACAGU (ssRNA, 2'-F G, 2'-OMe A/C/U, 5' C6NH2, 3' idT) [Aptamer 14]
Kd [nM]: 6

Please turn your attention to the following entry.
Specify Kd for UUAGCCCUGCCAUUGGGGCAUACUUUGGCCGCACU (ssRNA, 2'-F G, 2'-OMe A/C/U, 5' C6NH2, 3' idT) [Aptamer 23] and stop.
12
